Hey, just so you know, these numbers are from PubChem BioAssay (NCI).

Known log10 of TGI of a selection of compounds
System: SW-620 colon
procedure_summary: NCI tumour cell line growth inhibition, 48 h
measurement_name: log10 of TGI (log10 of the value in µM)

compound	target_system	observed_measurement
C[C@@H]1O[C@@H](O[C@H]2CC[C@@]3(C)[C@H](CCC4[C@@H]3C(O)C[C@]3(C)[C@@H](c5ccc(=O)oc5)CC[C@]43O)C2)[C@H](O)[C@H](O)[C@H]1O (stereo not given in full)	SW-620 colon	-1.91
N#Cc1c(N)[nH]c2ccc(Sc3ccccc3)cc12	SW-620 colon	1.23
COc1ccc(/C=C2\CN(C)C/C(=C\c3ccc(OC)c(OC)c3OC)C2=O)c(OC)c1OC	SW-620 colon	-0.37
CN1CCN(Cc2ccc(NC(=O)c3[nH]ncc3Nc3ncnc4sc5c(c34)CCCC5)cc2)CC1	SW-620 colon	0.02
C/C1=C\[C@@H](O)C(=O)/C=C/C=C\c2csc(n2)[C@@H](C)NC(=O)C[C@@]2(CC1)S(=O)SC(=O)[C@]2(C)O (stereo not given in full)	SW-620 colon	-1.84
CC(C)(C)CN1CCn2c(nc3c(N)nccc32)S1	SW-620 colon	1.48
COc1cc2nc(NCCCCCNC(=O)c3ccco3)nc(N)c2cc1OC	SW-620 colon	1.76
CN1CCN(CC(O)COc2c(Br)c(Br)c(Br)c3c2OC(C)(C)C3)CC1 (stereo not given)	SW-620 colon	0.94
